# Tested on: Candida parapsilosis
# Procedure Details: Antifungal activity against Candida parapsilosis ATCC 22019 measured after 24 to 48 hrs by microdilution broth method
# Format: functional
# Settings: Lodderomyces parapsilosis, time 24-48 hrs
Recorded Metric: MIC

Form field MIC for item COc1cnc(NS(=O)(=O)c2ccc(NC(=O)/C(C)=N/NC(=O)c3ccncc3)cc2)nc1 on Candida parapsilosis: > 500 µM

Short answer on Candida parapsilosis for C/C(=N\NC(=O)c1ccncc1)C(=O)Nc1ccc(S(=O)(=O)Nc2ncccn2)cc1 , MIC: > 500 µM

Case C/C(=N\NC(=O)c1ccncc1)C(=O)Nc1ccc(S(=O)(=O)Nc2nccs2)cc1 , Candida parapsilosis, MIC recorded as > 500 µM

Record C/C(=N\NC(=O)c1ccncc1)C(=O)Nc1ccc(S(=O)(=O)Nc2cc(C)on2)cc1 / Candida parapsilosis, MIC recorded as > 500 µM

So the reported MIC for C/C(=N\NC(=O)c1ccncc1)C(=O)Nc1ccc(Oc2ccc(Cl)cc2)c(Cl)c1 , on Candida parapsilosis, turned out to be > 500 µM

Entry C/C(=N\NC(=O)c1ccncc1)C(=O)Nc1ccccc1Oc1ccccc1 under Candida parapsilosis had MIC of > 500 µM

GET /values?item= C/C(=N\NC(=O)c1ccncc1)C(=O)Nc1ccc(S(N)(=O)=O)cc1 &system= Candida parapsilosis returns MIC: > 500 µM

Record C/C(=N\NC(=O)c1ccncc1)C(=O)Nc1ccc(Oc2ccc(Cl)cc2)cc1 ; system Candida parapsilosis; MIC = > 500 µM

Param item: COc1ccc(NS(=O)(=O)c2ccc(NC(=O)/C(C)=N/NC(=O)c3ccncc3)cc2)nn1 ; param system: Candida parapsilosis; output MIC: > 500 µM

Candida parapsilosis assay, compound C/C(=N\NC(=O)c1ccncc1)C(=O)Nc1ccc(S(=O)(=O)Nc2nc(C)cc(C)n2)cc1 , recorded MIC = > 500 µM

# C/C(=N\NC(=O)c1ccncc1)C(=O)Nc1ccc(Oc2ccccc2)cc1 with Candida parapsilosis: MIC is > 500 µM

Measured values drawn from ChEMBL document CHEMBL6177921 for this set.
